Where do these numbers come from? They come from patent US20240116985A1.

Biological target: T1, B-cat-Halo (beta-catenin HaloTag construct expressed in HEK293 cells) (UniProt P35222 1-781)
T1 sequence (looked up): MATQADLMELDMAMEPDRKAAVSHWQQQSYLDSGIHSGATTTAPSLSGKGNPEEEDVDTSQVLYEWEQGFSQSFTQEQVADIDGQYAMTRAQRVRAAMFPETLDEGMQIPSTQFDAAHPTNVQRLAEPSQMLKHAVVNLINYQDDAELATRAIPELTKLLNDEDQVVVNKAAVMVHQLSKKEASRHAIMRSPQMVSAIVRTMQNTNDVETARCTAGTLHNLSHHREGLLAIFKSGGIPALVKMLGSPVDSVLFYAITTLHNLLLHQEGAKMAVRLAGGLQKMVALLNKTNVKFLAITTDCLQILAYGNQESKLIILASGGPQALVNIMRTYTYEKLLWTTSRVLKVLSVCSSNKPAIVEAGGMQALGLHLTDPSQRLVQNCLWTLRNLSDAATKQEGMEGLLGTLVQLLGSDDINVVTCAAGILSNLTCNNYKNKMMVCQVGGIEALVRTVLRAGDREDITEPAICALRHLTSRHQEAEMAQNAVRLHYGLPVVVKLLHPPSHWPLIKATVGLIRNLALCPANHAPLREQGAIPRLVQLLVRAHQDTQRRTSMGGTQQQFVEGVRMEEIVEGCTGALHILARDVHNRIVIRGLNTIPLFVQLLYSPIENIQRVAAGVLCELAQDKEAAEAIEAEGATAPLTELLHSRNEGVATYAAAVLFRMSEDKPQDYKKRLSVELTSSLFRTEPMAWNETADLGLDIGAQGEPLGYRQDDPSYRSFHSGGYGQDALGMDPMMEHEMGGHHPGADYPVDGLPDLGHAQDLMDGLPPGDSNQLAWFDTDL
Assay: cell-based or functional assay
Starred links: 1 amine or outer side, 2 acyl side, 3 side chain; linkers in the order of their positions; H or OH if unused. Positions of bridges follow the written chain, without caps; N, C: chain ends. Non-standard residues stand in square brackets, D forms with d. Primed or numbered codes have the meaning given here. PyrS2″ = (S)-3-amino-1-((pent-4-en-1-yloxy)carbonyl)pyrrolidine-3-carboxylic acid (stapling residue), C=CCCCOC(=O)N1CC[C@@](N[*:1])(C(=O)[*:2])C1; PyrS2 = (S)-3-amino-1-((pent-4-en-1-yloxy)carbonyl)pyrrolidine-3-carboxylic acid, C=CCCCOC(=O)N1CC[C@@](N[*:1])(C(=O)[*:2])C1; B5(3) = 2,2-bis(4-pentenyl)glycine (stitching residue), C=CCCCC(CCCC=C)(N[*:1])C(=O)[*:2]; B5 = 2-amino-2-(pent-4-en-1-yl)hept-6-enoic acid, C=CCCCC(CCCC=C)(N[*:1])C(=O)[*:2]; Ala(4-thiazolyl) = N[C@@H](Cc1cscn1)C(=O)O; 1Nal = N[C@@H](Cc1cccc2ccccc12)C(=O)O; Bta = N[C@@H](Cc1csc2ccccc12)C(=O)O; αAllylPro = C=CC[C@@]1(C(=O)O)CCCN1; tBuAla = CC(C)(C)C[C@H](N)C(=O)O; 3Thi = N[C@@H](Cc1ccsc1)C(=O)O; Cit = NC(=O)NCCC[C@H](N)C(=O)O
Mark True for reported NanoBRET Abs IC50 of 5 µM or greater; mark False for anything smaller.

INSERT INTO results (binder, qualitative_label) VALUES
  ('Ac-[αAllylPro]D[tBuAla][B5(3)]DDAAFF[PyrS2″][3Thi][Bta]H-NH2 (staple 1-4, 4-11) [I-808]', 'False'),
  ('Ac-[αAllylPro]D[tBuAla][B5(3)]DDAAF[Cit][PyrS2″][3Thi][Bta]H-NH2 (staple 1-4, 4-11) [I-806]', 'True'),
  ('Ac-[αAllylPro]D[tBuAla][B5]DDAAFN[PyrS2][1Nal][Bta]H-NH2 (staple 1-4, 4-11) [I-794]', 'True'),
  ('Ac-[αAllylPro]D[tBuAla][B5]DDAAFN[PyrS2″][3Thi][Bta]S-NH2 (staple 1-4, 4-11) [I-815]', 'True'),
  ('Ac-[αAllylPro]D[tBuAla][B5]DDAAFL[PyrS2][3Thi][Bta]Q-NH2 (staple 1-4, 4-11) [I-801]', 'True'),
  ('Ac-[αAllylPro]D[tBuAla][B5]DDAAFN[PyrS2″][3Thi][Bta][dH]-NH2 (staple 1-4, 4-11) [I-813]', 'True'),
  ('Ac-[αAllylPro]D[tBuAla][B5]DDAAFL[PyrS2][3Thi][Bta]H-NH2 (staple 1-4, 4-11) [I-802]', 'False'),
  ('Ac-[αAllylPro]D[tBuAla][B5(3)]DDAAFN[PyrS2″][Ala(4-thiazolyl)][Bta]Q-NH2 (staple 1-4, 4-11) [I-811]', 'True'),
  ('Ac-[αAllylPro]D[tBuAla][B5(3)]DDAA[Ala(4-thiazolyl)]N[PyrS2″][3Thi][Bta]Q-NH2 (staple 1-4, 4-11) [I-812]', 'True'),
  ('Ac-[αAllylPro]D[tBuAla][B5(3)]DDAAFF[PyrS2″][3Thi][Bta]Q-NH2 (staple 1-4, 4-11) [I-807]', 'False');
